molecular target: S1P1 (Homo sapiens (Human), UniProt P21453); assay: Receptor [35S] GTPγS Binding Assay, S1P1; assay type: biochemical; conditions: ratio of GTPγS S1P3 EC50 to GTPγS S1P1 EC50; * and ** S1P3 value at detection limit
Sequence (P21453 whole entry): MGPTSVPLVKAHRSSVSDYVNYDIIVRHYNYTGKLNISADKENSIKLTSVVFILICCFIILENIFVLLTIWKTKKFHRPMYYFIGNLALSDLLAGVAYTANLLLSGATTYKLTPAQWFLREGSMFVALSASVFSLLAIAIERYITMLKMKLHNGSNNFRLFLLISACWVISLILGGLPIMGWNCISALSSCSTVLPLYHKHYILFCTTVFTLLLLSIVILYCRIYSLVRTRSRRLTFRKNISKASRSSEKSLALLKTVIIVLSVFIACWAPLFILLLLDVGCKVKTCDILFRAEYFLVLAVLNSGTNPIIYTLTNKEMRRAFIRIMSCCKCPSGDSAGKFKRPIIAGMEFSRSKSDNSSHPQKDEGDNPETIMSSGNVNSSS
Each entry below lists one item and its recorded GTPγS S1P3/S1P1 value.
property label: GTPγS S1P3/S1P1

>>> print(df.to_string())
                                   compound  test_value
0  O=C(NCCO)C(O)c1ccc(-c2noc(-c3noc(-c4ccccc4)c3C(F)(F)F)n2)cc1 (racemic)         731
1  N#CC1(NC(=O)C(O)c2ccc(-c3noc(-c4onc(-c5ccccc5)c4C(F)(F)F)n3)cc2)CC1 (single isomer, unassigned)         232
2  CNC(=O)[C@H](CCc1ccccc1)NC(=O)C(O)c1ccc(-c2noc(-c3onc(-c4ccccc4)c3C(F)(F)F)n2)cc1 (mixture of isomers)         1.4
3  CC(C)(O)CNC(=O)CCNC(=O)C(O)c1ccc(-c2noc(-c3onc(-c4ccccc4)c3C(F)(F)F)n2)cc1 (single isomer, unassigned)        4679
4  O=C(NCc1nc2ccccc2[nH]1)C(O)c1ccc(-c2noc(-c3onc(-c4ccccc4)c3C(F)(F)F)n2)cc1 (racemic)         171

* * *

biological target: S1P1 (Homo sapiens (Human)); assay: Receptor [35S] GTPγS Binding Assay, S1P1; conditions: membranes from S1P1/CHO cells; [35S]GTP
The label 1 is reserved for EC50 strictly under 1000 nM; 0 covers values equal to or above it.

In [3]: df
Out[3]:
                                   compound  category
0  O=C(NC1CNC1)C(O)c1ccc(-c2noc(-c3onc(-c4ccccc4)c3C(F)(F)F)n2)cc1 (single isomer, unassigned)         1
1  O=C(NCCO)C(O)c1ccc(-c2noc(-c3noc(-c4ccccc4)c3C(F)(F)F)n2)cc1 (racemic)         1
2  CCN(C)C(=O)C(O)c1ccc(-c2noc(-c3onc(-c4ccccc4)c3C(F)(F)F)n2)cc1 (racemic)         0
3  CNC(=O)[C@H](CCc1ccccc1)NC(=O)C(O)c1ccc(-c2noc(-c3onc(-c4ccccc4)c3C(F)(F)F)n2)cc1 (mixture of isomers)         0
4  O=C(NCc1cc2ccccc2[nH]1)C(O)c1ccc(-c2noc(-c3onc(-c4ccccc4)c3C(F)(F)F)n2)cc1 (racemic)         0
5  O=C(NCCC(=O)N1CC(O)C1)C(O)c1ccc(-c2noc(-c3onc(-c4ccccc4)c3C(F)(F)F)n2)cc1 (racemic)         1

* * *

target: S1P1 (Homo sapiens (Human), UniProt P21453); test: Receptor [35S] GTPγS Binding Assay, S1P1; settings: membranes from S1P1/CHO cells; [35S]GTP
property label: EC50 (nM)

>>> df
                                   compound                              assay_target  test_value
0  Cn1cccc1CNC(=O)C(O)c1ccc(-c2noc(-c3onc(-c4ccccc4)c3C(F)(F)F)n2)cc1 (racemic)  S1P1 (Homo sapiens (Human), UniProt P21453)         636
1  O=C(NC[C@@H]1CCCC[C@H]1O)C(O)c1ccc(-c2noc(-c3cnn(-c4ccccc4)c3C(F)(F)F)n2)cc1 (mixture of isomers)  S1P1 (Homo sapiens (Human), UniProt P21453)         517
2  O=C(NCc1cnco1)C(O)c1ccc(-c2noc(-c3onc(-c4ccccc4)c3C(F)(F)F)n2)cc1 (racemic)  S1P1 (Homo sapiens (Human), UniProt P21453)        13.6

Numbers sourced from patent US8835470B2.
